B1: HDV Ribozyme (parent)
chain: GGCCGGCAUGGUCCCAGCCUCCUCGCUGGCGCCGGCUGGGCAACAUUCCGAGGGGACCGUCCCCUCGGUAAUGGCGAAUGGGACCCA

- Variants of: B1
- assay-info: self-cleavage, relative activity (ratio to wild type); higher = more cleavage; co-transcriptional
readout-label: self-cleavage
Kindly provide the number alone.

Request: If you can, please state the reported self-cleavage value of C19A A56U .
Response: 0.122

Request: Another: C30G C62G
Response: 0

Request: Another: G29C G39U
Response: 0.0992

Request: Another: C26U C57G
Response: 0.932

Request: Another: C66G C84A
Response: 0.923

Request: Another: G28A A43C
Response: 0.108

Request: Another: A42U C84G
Response: 0.198

Request: Another: C49U A77C
Response: 0.469

Request: Another: G40C C86U
Response: 0.372

Request: Another: U23C G35U
Response: 0.354

Request: Another: U23A U60G
Response: 0.923

Request: Another: G5C G31C
Response: 0.0519

Request: Another: C30U G52U
Response: 0.709

Request: Another: C18G C22U
Response: 0.0504

Request: Another: C26A C41U
Response: 1.17

Request: Another: C30U C61G
Response: 0.369

Request: Another: C36U G50U
Response: 0.841

Request: Another: G1C G54A
Response: 0.131

Request: Another: U20C A42C
Response: 0.158

Request: Another: C4A G55U
Response: 0.237

Request: Another: G6C A42C
Response: 0.138

Request: Another: C41A G73C
Response: 0.554

Request: Another: G6C G38A
Response: 0.0396

Request: Another: C57U C63G
Response: 1.12

Request: Another: U20C G34U
Response: 0.086

Request: Another: G54U G55U
Response: 0.921

Request: Another: G82A C84G
Response: 0.232

Request: Another: G40U C57U
Response: 0.712

Request: Another: A45G C57G
Response: 1.01

Request: Another: C13G A78C
Response: 0.0811

Request: Another: C22G G40C
Response: 0.0665

Request: Another: G50A A78C
Response: 0.138

Request: Another: C36U C58G
Response: 0.759

Request: Another: C33G U79A
Response: 0.0755

Request: Another: G2C C66A
Response: 0.0913

Request: Another: C64A G76U
Response: 0.858

Request: Another: G59A A77U
Response: 0.574

Request: Another: G40A G81A
Response: 0.475

Request: Another: C3G A71U
Response: 0.502

Request: Another: U27A G39U
Response: 0.213

Request: Another: C24A G74C
Response: 0.0326
